// provenance: patent US20240043507A1

- SYSTEM_TESTED: SARS-CoV-2 spike protein on authentic virus, strain B.1.1.7 (SARS-CoV-2, UniProt P0DTC2 14-1273)
- PROTOCOL_DESCRIPTION: cell-based or functional assay
MEASURE: IC50 (ug/ml), FRNT (µg/mL)
Respond with the bare value in µg/mL.

Per the record, antibody 88, full-length IgG (antibody, V domains shown, also called mAb 88; 88 IgG) VH: QLQLQESGPGLVKPSQTLSLTCTVSGGSISSGSYNWTWIRQPAGKGLEWIGRIYNSGSTNYNPSLKSRVTISVDTSKNQLSLKVRSVTAADTAVYYCARHCSGGTCYPKYYYGMDVWGQGTTVTVSS VL: QSALTQPPSVSEAPRQRVTISCSGSSSNIGNNAVNWYQQFPGKAPKLLIYYDDLLPSGVSDRFSGSKSGTSASLAISGVQSEDEADYYCAAWDDSLNVVVFGGGTKLTVL has IC50 (ug/ml), FRNT of 0.058

Per the record, antibody 150, full-length IgG (antibody, V domains shown) VH: QVQLVESGGGLIQPGGSLRLSCAASGVTVSSNYMSWVRQAPGKGLEWVSIIYSGGTTYYADSVKGRFTISRDSSMNTLYLQMNSLRAEDTAVYYCARDLMVYGIDVWGQGTTVTVSS VL: EIVMTQSPSSLSASVGDRVTITCRASQGISSYLAWYQQKPGKAPKLLIYAASTLQSGVPSRFSGSGSGTDFTLTISSLQPEDFATYYCQQLDSYPPGYTFGQGTKVDIK has IC50 (ug/ml), FRNT of 0.139

Per the record, antibody 159, full-length IgG (antibody, V domains shown) VH: EVQLVESGGGVVQPGRSLRLSCAASGFTFSSYGMHWVRQAPGKGLEWVALISYDGGNRYYADSVKGRFTISRDNSKNTLYLQMNRLRAEDTAMYYCAKDRDDGWDWYYFMDVWGKGTTVTVSS VL: DIQLTQSPGTLSLSPGERATLSCRASQSISGNYLAWYQHKPGQAPRLLIYGASTRATGIPDRFSGSGSGTDFTLTISRLEPEDFAVYYCQQYGSSYTFGQGTKVEIK has IC50 (ug/ml), FRNT of 0.061
